Each item that follows carries a reported viability, T/C.
# System: 233499-124-R-J3-PDC complex spheroid viability
# assay overview: Anticancer human tumor 233499-124-R-J3-PDC patient-derived colon adenocarcinoma cell line growth inhibition [CLK]
# particulars: second compound 0.0316 µM; first compound 3.16 µM; hits give low values

{"molecule": "Nc1ccn(C2OC(CO)C(O)C2(F)F)c(=O)n1 (stereo not drawn) + CN1CCN(c2cc(C(=O)Nc3cc4cc(-c5cnn(C)c5)ccc4cn3)ccn2)CC1", "viability, T/C [%]": 37}
{"molecule": "O=C(c1cc(Cc2n[nH]c(=O)c3ccccc23)ccc1F)N1CCN(C(=O)C2CC2)CC1 + CNC(=O)c1ccc(Nc2nc(OC3CCCC3)c3c(-c4ccc5nc(C)oc5c4)c[nH]c3n2)c(OC)c1", "viability, T/C [%]": 102}
{"molecule": "COc1cccc2c1C(=O)c1c(O)c3c(c(O)c1C2=O)CC(O)(C(=O)CO)CC3OC1CC(N)C(O)C(C)O1 (stereo not drawn) + CNC(=O)c1ccc(Nc2nc(OC3CCCC3)c3c(-c4ccc5nc(C)oc5c4)c[nH]c3n2)c(OC)c1", "viability, T/C [%]": 13.5}

====

# Test system: 233499-124-R-J3-PDC complex spheroid viability
# assay overview: Anticancer human tumor 233499-124-R-J3-PDC cell line growth inhibition [CLK];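 further: spheroids exposed to the drug combinations for seven days; percent viability relative to DMSO vehicle control wells taken as 100%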
# particulars: second compound 3.16 µM; first compound 0.003 µM; hits give low values
# Description: A high-throughput screen of multi-cell type tumor spheroids was designed to identify active combinations of […] and targeted small molecules. Complex spheroids include a stromal component modeled by human endothelial cells (HUVEC) and fibroblasts modeled by human mesenchymal stem cells (MSCs). […] Compounds. […] If the clinical Cmax for an agent had not been determined, the highest concentration tested was 10 microM. […]

{"compound": "C=CC(=O)Nc1cc(Nc2nccc(-c3cn(C)c4ccccc34)n2)c(OC)cc1N(C)CCN(C)C + CN1CCN(c2cc(C(=O)Nc3cc4cc(-c5cnn(C)c5)ccc4cn3)ccn2)CC1", "unit of measurement": "%", "viability, T/C": 0.65}
{"compound": "C=CC(=O)Nc1cc(Nc2nccc(-c3cn(C)c4ccccc34)n2)c(OC)cc1N(C)CCN(C)C + CNC(=O)c1ccc(Nc2nc(OC3CCCC3)c3c(-c4ccc5nc(C)oc5c4)c[nH]c3n2)c(OC)c1", "unit of measurement": "%", "viability, T/C": 71.3}
{"compound": "CC(C)CC(NC(=O)C(Cc1ccccc1)NC(=O)c1cnccn1)B(O)O (centres undefined) + CN1CCN(c2cc(C(=O)Nc3cc4cc(-c5cnn(C)c5)ccc4cn3)ccn2)CC1", "unit of measurement": "%", "viability, T/C": 0.84}
{"compound": "CC(C)CC(NC(=O)C(Cc1ccccc1)NC(=O)c1cnccn1)B(O)O (centres undefined) + CNC(=O)c1ccc(Nc2nc(OC3CCCC3)c3c(-c4ccc5nc(C)oc5c4)c[nH]c3n2)c(OC)c1", "unit of measurement": "%", "viability, T/C": 18.4}

====

# Tested on: 233499-124-R-J3-PDC complex spheroid viability
# assay overview: Anticancer human tumor 233499-124-R-J3-PDC cell line growth inhibition [CLK];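 further: spheroids exposed to the drug combinations for seven days; percent viability relative to DMSO vehicle control wells taken as 100%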
# particulars: second compound 0.316 µM; first compound 0.00316 µM; hits give low values

{"molecule": "CCN1CCN(Cc2ccc(Nc3ncc(F)c(-c4cc(F)c5nc(C)n(C(C)C)c5c4)n3)nc2)CC1 + CN1CCN(c2cc(C(=O)Nc3cc4cc(-c5cnn(C)c5)ccc4cn3)ccn2)CC1", "viability, T/C": "92.7%"}
{"molecule": "Cn1ncnc1[C@H]1c2n[nH]c(=O)c3cc(F)cc(c23)N[C@@H]1c1ccc(F)cc1 + CNC(=O)c1ccc(Nc2nc(OC3CCCC3)c3c(-c4ccc5nc(C)oc5c4)c[nH]c3n2)c(OC)c1", "viability, T/C": "58.6%"}
{"molecule": "CCN1CCN(Cc2ccc(Nc3ncc(F)c(-c4cc(F)c5nc(C)n(C(C)C)c5c4)n3)nc2)CC1 + CNC(=O)c1ccc(Nc2nc(OC3CCCC3)c3c(-c4ccc5nc(C)oc5c4)c[nH]c3n2)c(OC)c1", "viability, T/C": "68.8%"}
